test system: HEK293FT dCK*-IKZF1; experiment: relative growth recovery (pomalidomide 10 uM = 100%, DMSO = 0%); higher = more growth rescue (IKZF1 fusion degradation); conditions: compound concentration: 5 uM; AraC concentration: 0.3 uM; overnight pretreatment + 4 days AraC
The full ranking holds about 1,000 compounds; the median of “relative growth recovery (pomalidomide 10 uM = 100%, DMSO = 0%)” is about -1.6, and the highest 2% start at about 21. Shown is part of a subset that was picked to be rich in the highest values.
Kindly state relative growth recovery for each of the entries shown.
Give just the number in %; leave the unit off.

Req: Give the measured relative growth recovery of `CCOCc1ccc(C(=O)N2CCC(c3cccc(Nc4ncc(C)s4)n3)CC2)cc1` .
Resp: 29.5

Req: Then `COc1ccc(NS(=O)(=O)c2ccc(N)cc2)nn1` ?
Resp: 3.75

Req: Also need Cc1nc(Nc2cccc(C3CCCN3C(=O)COc3ccc(F)cc3)n2)sc1C (configuration not stated) , thanks.
Resp: 14.4

Req: // next record `CC(=O)Nc1cccc(Oc2ccc3c(c2)C(=O)N(c2ccc(OC(C)=O)cc2)C3=O)c1`
Resp: -2.76

Req: Repeat with `Cc1nc(Nc2cccc(C3CCN(C(=O)CCc4c(C)n[nH]c4C)CC3)n2)sc1C`
Resp: 26

Req: For `Cc1ccc2[nH]c3nc(SCC(=O)Nc4ccc(C)c(Cl)c4)nnc3c2c1` then?
Resp: -24.6

Req: Follow-up entry: CC(Oc1ccccc1)C(=O)Nc1ccc(S(=O)(=O)Nc2ncccn2)cc1 (configuration not stated)
Resp: -0.515

Req: Thanks! And `Cc1cc(C)c(C(=O)Nc2ccc(S(=O)(=O)Nc3cc(C)nc(C)n3)cc2)c(C)c1` ?
Resp: -1.16

Req: Okay, and Cc1cnc(C(=O)N2CCCC2c2cccc(Nc3nc(C)c(C)s3)n2)cn1 (configuration not stated) ?
Resp: 4.79

Req: Now consider CC(=O)N1CCCC(c2csc(Nc3ccccn3)n2)C1 (configuration not stated) .
Resp: -1.67

Req: For Cc1nc(Nc2cccc(C3CCCN3C(=O)CCCN3C(=O)CNC3=O)n2)sc1C (configuration not stated) then?
Resp: 3.93

Req: // next record `COCCNC(=O)C1(c2cccc(Nc3ncc(C)s3)n2)CCN(C(=O)C2CCCCC2)CC1`
Resp: -5.38

Req: How about `Cc1cc(OCC(=O)Nc2ccc(S(=O)(=O)Nc3ncccn3)cc2)ccc1Cl` ?
Resp: -0.26

Req: Follow-up entry: `Cc1cnc(Nc2cccc(C3CCN(C(=O)CC4CCCCC4)CC3)n2)s1`
Resp: -13.5

Req: Repeat with `COc1ccc(NC(=O)CN2CCC(c3cccc(Nc4nc(C)cs4)n3)CC2)cc1`
Resp: 32.9

Req: Another compound to look at: Cc1ccc(Nc2nc(C3CCCN(CC(N)=O)C3)cs2)nc1 (configuration not stated)
Resp: -5.75

Req: Same read-out for `Cc1cnc(NC(=O)CN2CCC(c3cccc(Nc4ncc(C)s4)n3)CC2)s1` ?
Resp: -13.8

Req: Cool, now `Cc1ccc(OCC(=O)Nc2ccc(S(=O)(=O)Nc3nc(C)cc(C)n3)cc2)cc1`
Resp: -1.25

Req: Do the same for `CCCCc1cnc(Nc2cccc(C3CCN(C(=O)[C@@H]4CCCCN4)CC3)n2)s1` please
Resp: -11.4

Req: Then this compound: Cc1ccc2[nH]nc(C(=O)N3CCCC3c3cccc(Nc4nc(C)cs4)n3)c2c1 (configuration not stated)
Resp: -0.105

Req: Try `CC(=O)N1CCC(Cc2cccc(Nc3nc(C)cs3)n2)CC1` next.
Resp: 10.6

Req: And for CCCc1cnc(Nc2cccc(C3CCN(C(=O)C4CCCCN4C(=O)CN(C)C)CC3)n2)s1 (configuration not stated) ?
Resp: -2.86

Req: Entry to check: `Cc1ccnc(NS(=O)(=O)c2ccc(NC(=O)c3cccs3)cc2)n1`
Resp: 3.83

Req: Also, Cc1csc(Nc2cccc(C3CCCN3C(=O)CC3CC(C)(C)NC(C)(C)C3)n2)n1 (configuration not stated) please.
Resp: -0.835

Req: Try this compound too: O=C(O)COCCOCCNc1cc2c(cc1F)C(=O)N(C1CCC(=O)NC1=O)C2=O (configuration not stated)
Resp: -7.7

Req: Follow-up entry: `CC(=O)Nc1ccc(-c2csc(Nc3cccc(C)n3)n2)cc1`
Resp: 0.905

Req: Then this compound: `Cc1cc(C)nc(NS(=O)(=O)c2ccc(NC(=O)COc3ccc(Cl)cc3)cc2)n1`
Resp: 3.77

Req: Then what about the compound `COCCOCC(=O)Nc1ccc(S(=O)(=O)Nc2cc(C)nc(C)n2)cc1` ?
Resp: -1.1

Req: What do you get for `CC(=O)N1CCC(c2cccc(Nc3ncc(C)s3)n2)CC1` ?
Resp: -19

Req: Then this compound: `COc1ccc(NC(=O)CN2CCC(c3cccc(Nc4ncc(C)s4)n3)CC2)cc1`
Resp: -11

Req: Next up: `CCCc1cnc(Nc2cccc(C3(CO)CCN(C(=O)C4CCCCC4)CC3)n2)s1`
Resp: -17

Req: # iterate: `NCC(=O)N1CCC(c2cccc(Nc3ncc(Br)s3)n2)CC1`
Resp: -17.1

Req: Moving on to Cc1cnc(Nc2cccc(C3CN(C(=O)C4CCOC4)CCO3)n2)s1 (configuration not stated)
Resp: -8.06

Req: Thanks! And Cc1nc(Nc2cccc(C3CCCN3C(=O)c3ccc(=O)n(C)n3)n2)sc1C (configuration not stated) ?
Resp: 5.83

Req: And for `Cc1cnc(Nc2cccc(C3(C(N)=O)CCN(C(=O)C4CCCCC4)CC3)n2)s1` ?
Resp: -18.2

Req: Same again, this time with Cn1nccc1/C=C/C(=O)N1CCCC(c2cc3ccccc3c(Nc3nccs3)n2)C1 (configuration not stated)
Resp: -10.2

Req: Repeat with `Cc1ccnc(NS(=O)(=O)c2ccc(NS(=O)(=O)c3ccc(F)cc3)cc2)n1`
Resp: -0.59

Req: What do we get for `COc1cc(NS(=O)(=O)c2ccc(NC(=O)CCl)cc2)nc(OC)n1` ?
Resp: -5.68

Req: Subsequent entry: `Cc1ccc(C)c(OCC(=O)Nc2ccc(S(=O)(=O)Nc3nc(C)cc(C)n3)cc2)c1`
Resp: -2.19

Req: // repeat for `Cc1cnc(Nc2cccc(C3CCN(C(=O)c4cccnc4)CC3)n2)s1` and report
Resp: -18.6

Req: And Cc1ccc(Nc2nc(C3CCCN(C(=O)/C=C/c4csc(C)n4)C3)cs2)nc1 (configuration not stated) ?
Resp: 31.5

Req: Same for CCCN1CC(C(=O)N2CCC(c3cccc(Nc4ncc(C)s4)n3)CC2)CC1=O (configuration not stated)
Resp: -5.35
